# System: LP-1 cells
# assay_info: Antiproliferative activity on LP-1 cells (CellTiter-Glo)
# Type: cell-based, human
# condition_notes: Homo sapiens, LP-1, 72 h, 72 hr treatment, averaged values
parameter_measured: EC50 (nM)
Give bare numbers, in nM.

The examples below pair each entry with its known result.
CC(O)C#Cc1cc2c(-c3nc(N)ncc3F)cn(C3CN(C4CC4)C3)c2cn1 (stereo not shown) | 131
COCCCN1CCC(n2cc(-c3nc(N)ncc3F)c3cc(C#CC(C)(O)C4CC4)ncc32)C1 (stereo not shown) | 158

Batch request: EC50 per item, same order as input.
1. CC(O)(C#Cc1cc2c(-c3nc(N)ncc3F)c[nH]c2c(C2CC2)n1)C1CC1 (stereo not shown) [Compound 1]
2. CC(O)(C#Cc1cc2c(-c3nc(N)ncc3F)c[nH]c2c(C2CC2)n1)C1CC1 (single isomer, unassigned) [Compound 13]
3. Cc1cc(C(C)(O)C#Cc2cc3c(-c4nc(N)ncc4F)c[nH]c3cn2)no1 (stereo not shown)
4. CCCN1CCC(n2cc(-c3nc(N)ncc3F)c3cc(C#CC(C)(O)C4CC4)ncc32)C1 (stereo not shown)
5. CC(O)(C#Cc1cc2c(-c3nc(N)ncc3F)cn(C3CN(C4CC4)C3)c2cn1)c1ncccn1 (stereo not shown)
6. CCCCN1CCC(n2cc(-c3nc(N)ncc3F)c3cc(C#CC(C)(O)C4CC4)ncc32)C1 (stereo not shown) [Compound 11]

19
15
5030
69
29000
52

Batch request: EC50 per item, same order as input.
1. CCCCN1CCC(n2cc(-c3nc(N)ncc3F)c3cc(C#CC(C)(O)C4CC4)ncc32)C1 (single isomer, unassigned) [Compound 26]
2. CCN1CCC(n2cc(-c3nc(N)ncc3F)c3cc(C#CC(C)(O)C4CC4)nc(C)c32)C1 (stereo not shown)
3. Nc1ncc(F)c(-c2c[nH]c3cnc(C#CC4(O)CCCC4)cc23)n1

[114, 20, 1120]

Batch request: EC50 per item, same order as input.
1. Nc1ncc(F)c(-c2cn(C3CN(C4CC4)C3)c3cnc(C#CC4(O)CCCC4)cc23)n1
2. CC(O)(C#Cc1cc2c(-c3nc(N)ncc3F)c[nH]c2cn1)c1nccs1 (stereo not shown)
3. CC(O)(C#Cc1cc2c(-c3nc(N)ncc3F)cn(C3CN(CCC(F)(F)F)C3)c2cn1)C1CC1 (stereo not shown)
4. Cc1nc(C(C)(O)C#Cc2cc3c(-c4nc(N)ncc4F)cn(C4CN(C5CC5)C4)c3cn2)no1 (stereo not shown)

[1000, 7620, 377, 14400]

Lab note: need EC50 for CC(C)n1cc(-c2nc(N)ncc2OCCN2CCOCC2)c2cc(C#CC(C)(O)C3CC3)ncc21 (stereo not shown) on LP-1 cells, anyone have it? 1190

----------
# Test system: LP-1 cells
# assay_info: Antiproliferative activity on LP-1 cells (CellTiter-Glo)
# Format: cell-based, human
# condition_notes: Homo sapiens, LP-1, 72 h, 72 hr treatment, averaged values
# Method: Determination of Antiproliferative Activity on LP-1, L-363 and JJN-3 Cells All compounds tested were dissolved in DMSO and further dilutions were made in culture medium. Final DMSO concentration was 0.3% (v/v) in cell proliferation assays. Viability was assessed using CellTiter-Glo cell viability assay kit (Promega). […] Luminescence was measured on a HTS Topcount (Perkin Elmer). […]
Assignment: determine reported EC50 for the given compounds.
Answers are plain numbers, in nM.

The examples below pair each entry with its known result.
CC(C)N1CCC(n2cc(-c3nc(N)ncc3F)c3cc(C#CC(C)(O)C4CC4)ncc32)C1 (stereo not shown) [Compound 3] | 147
CC(O)(C#Cc1cc2c(-c3nc(N)ncc3F)cn(C3CN(C4CC4)C3)c2cn1)c1nccs1 (single isomer, unassigned) [Compound 28] | 4260
Cc1nc(C#CC(C)(O)C2CC2)cc2c(-c3nc(N)ncc3F)c[nH]c12 (stereo not shown) [Compound 2] | 39

# evaluate next
Requested field: EC50. Item: CC(O)(C#Cc1cc2c(-c3nc(N)ncc3F)cn(C3CN(C4CC4)C3)c2cn1)c1nccs1 (stereo not shown) [Compound 14] 3980

Entry source: patent US10005776B2
